Molecular target: human GLP-1 receptor (human, UniProt P43220 24-463)
Assay: cell-based or functional assay
Bridges are numbered along the chain shown (N, C = ends). Where no end group is shown, it is not given here. [ ]: non-standard residue; d: D form. The star is where a group is joined. Acetyl(2-(4-imidazolyl)) = O=C(Cc1c[nH]cn1)*; Aib = CC(C)(N)C(=O)O
Dear colleague, classification is by In vitro activity (%) vs. GLP-1, cAMP EC50, with ranges listed here: range A (below 7%), range B (7% to below 40%), range C (40% or more)

Example results:
{Acetyl(2-(4-imidazolyl))}-[Aib]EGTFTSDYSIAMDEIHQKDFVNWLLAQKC (bridge 15-19) [triple agonist of SEQ ID NO: 90]
range B
[Acetyl(2-(4-imidazolyl))][Aib]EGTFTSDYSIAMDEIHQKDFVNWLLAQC (bridge 16-20) [triple agonist of SEQ ID NO: 83]
range C
[Acetyl(2-(4-imidazolyl))]GQGTFTSDLSIQYDSEHQRDFIEWLKDTGPSSGAPPPSHG [triple agonist of SEQ ID NO: 19]
range A
[Acetyl(2-(4-imidazolyl))][Aib]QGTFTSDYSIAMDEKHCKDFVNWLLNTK (bridge 16-20; ends not checked) [triple agonist of SEQ ID NO: 60]
range C
Y[Aib]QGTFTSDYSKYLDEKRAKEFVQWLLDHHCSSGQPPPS (bridge 16-20) [triple agonist of SEQ ID NO: 43]
range B
[Acetyl(2-(4-imidazolyl))][Aib]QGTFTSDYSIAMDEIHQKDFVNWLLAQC (bridge 16-20) [triple agonist of SEQ ID NO: 85]
range A
Y[Aib]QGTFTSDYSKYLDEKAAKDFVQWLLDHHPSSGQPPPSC (bridge 16-20) [triple agonist of SEQ ID NO: 77]
range B
HGQGTFTSDCSKYLDGQRAQEFVAWLLAGGPSSGAPPPS [triple agonist of SEQ ID NO: 47]
range A

**Q:** Band for the recorded In vitro activity (%) vs. GLP-1, cAMP EC50 of H[Aib]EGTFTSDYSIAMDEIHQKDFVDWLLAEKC (bridge 16-20) [triple agonist of SEQ ID NO: 80] ?
**A:** range B

**Q:** Band for the recorded In vitro activity (%) vs. GLP-1, cAMP EC50 of H[Aib]QGTFTSDYSKYLDEKAAKEFVQWLLNTC (bridge 16-20) [triple agonist of SEQ ID NO: 29] ?
**A:** range B

**Q:** Band for the recorded In vitro activity (%) vs. GLP-1, cAMP EC50 of HGQGTFTSDCSKYLDEQHAQEFVAWLLAGGPSSGAPPPS [triple agonist of SEQ ID NO: 46] ?
**A:** range A
